Source of measurements: patent US20210139545A1

tgt: T1, cytochrome b562 with C-terminally fused Strep-tagII (E. coli)
T1 construct: also called Cytb562-StrepII; Cytb562-StrepIII
testDescription: affinity chromatography, capture from dilute solution (500 µg applied, 1 mg mutein)
We begin with a simple list: items and their reported yield of Cytb562-StrepII applied.
Please answer using a numeric value trailed by its unit.

>  <binder>
mutein“1”-m207 (designed binder, Library 6 clone on mutein “1”, 118 and 119 deleted) EAGITGTWYNQLGSTFIVTAGADGALTGTYVTARGNAESRYVLTGRYDSAPATDGSGTALGWTVAWKNNYRNAHSATTWSGQYVGGAEARINTQWLLTSGTTETWLSTLVGHDTFTKVKPSAAS

>  <yield of Cytb562-StrepII applied>
55%

$$$$
>  <binder>
mutein“1”-m212 (designed binder, Library 6 clone on mutein “1”, 118 and 119 deleted) EAGITGTWYNQLGSTFIVTAGADGALTGTYVTARGNAESRYVLTGRYDSAPATDGSGTALGWTVAWKNNYRNAHSATTWSGQYVGGAEARINTQWLLTSGTTEHWLSTLVGHDTFTKVKPSAAS

>  <yield of Cytb562-StrepII applied>
47%

$$$$
>  <binder>
mutein“1”-m302 (designed binder, Library 7 clone on mutein “1”, 118 and 119 deleted) EAGITGTWYNQLGSTFIVTAGADGALTGTYVTARGNAESRYVLTGRYDSAPATDGSGTALGWTVAWKNNYRNAHSATTWSGQYVGGAEARINTQWLLTSGTTEHWYSTLVGHDTFTKVKPSAAS

>  <yield of Cytb562-StrepII applied>
63%

$$$$
>  <binder>
mutein“1”-m41 (designed binder, Library 3 clone on mutein “1”) EAGITGTWYNQLGSTFIVTAGADGALTGTYVTARGNAESRYVLTGRYDSAPATDGSGTALGWTVAWKNNYRNAHSATTWSGQYVGGAEARINTQWLLTSGTTEAWYSTLVGHDTFTKVKPSAAS

>  <yield of Cytb562-StrepII applied>
47%

$$$$
>  <binder>
mutein m402 (designed binder, Library 1 clone) EAGITGTWYNQLGSTFIVTAGADGALTGTYACARGNAECRYVLTGRYDSAPATDGSGTALGWTVAWKNNYRNAHSATTWSGQYVGGAEARINTQWLLTSGTTEANAWKSTLVGHDTFTKVKPSAAS

>  <yield of Cytb562-StrepII applied>
31%

$$$$

Give reported yield of Cytb562-StrepII applied value for mutein“1”-m45 (designed binder, Library 3 clone on mutein “1”) EAGITGTWYNQLGSTFIVTAGADGALTGTYVTARGNAESRYVLTGRYDSAPATDGSGTALGWTVAWKNNYRNAHSATTWSGQYVGGAEARINTQWLLTSGTTEYNAGFSTLVGHDTFTKVKPSAAS
67%

Give reported yield of Cytb562-StrepII applied value for mutein“1”-m111 (designed binder, Library 5 clone on mutein “1”) EAGITGTWYNQLGSTFIVTAGADGALTGTYVTARGNAESRYVLTGRYDSAPATDGSGTALGWTVAWKNNYRNAHSATTWSGQYVGGAEARINTQWLLTSGTTEYNALWSTLVGHDTFTKVKPSAAS
67%

Give reported yield of Cytb562-StrepII applied value for mutein“1”-m23 (designed binder, Library 3 clone on mutein “1”) EAGITGTWYNQLGSTFIVTAGADGALTGTYVTARGNAESRYVLTGRYDSAPATDGSGTALGWTVAWKNNYRNAHSATTWSGQYVGGAEARINTQWLLTSGTTEYNAYASTLVGHDTFTKVKPSAAS
60%

Give reported yield of Cytb562-StrepII applied value for mutein“1”-m4 (designed binder, Library 3 clone on mutein “1”) EAGITGTWYNQLGSTFIVTAGADGALTGTYVTARGNAESRYVLTGRYDSAPATDGSGTALGWTVAWKNNYRNAHSATTWSGQYVGGAEARINTQWLLTSGTTEDNAGFSTLVGHDTFTKVKPSAAS
64%

Give reported yield of Cytb562-StrepII applied value for mutein m4001 (designed binder, Library 2 clone) EAGITGTWYNQLGSTFIVTAGADGALTGTYACGRGNAECRYVLTGRYDSAPATDGSGTALGWTVAWKNNYRNAHSATTWSGQYVGGAEARINTQWLLTSGTTEANAWKSTLVGHDTFTKVKPSAAS
34%

Give reported yield of Cytb562-StrepII applied value for mutein“1”-m36 (designed binder, Library 3 clone on mutein “1”) EAGITGTWYNQLGSTFIVTAGADGALTGTYVTARGNAESRYVLTGRYDSAPATDGSGTALGWTVAWKNNYRNAHSATTWSGQYVGGAEARINTQWLLTSGTTEYNAFMSTLVGHDTFTKVKPSAAS
61%

Give reported yield of Cytb562-StrepII applied value for mutein“1”-m301 (designed binder, Library 7 clone on mutein “1”, 118 and 119 deleted) EAGITGTWYNQLGSTFIVTAGADGALTGTYVTARGNAESRYVLTGRYDSAPATDGSGTALGWTVAWKNNYRNAHSATTWSGQYVGGAEARINTQWLLTSGTTEHWMSTLVGHDTFTKVKPSAAS
57%
